# study-target: S. pneumoniae Topoisomerase IV ATPase (ParE) (Streptococcus pneumoniae serotype 4, UniProt Q59961)
# Sequence (Q59961 whole entry): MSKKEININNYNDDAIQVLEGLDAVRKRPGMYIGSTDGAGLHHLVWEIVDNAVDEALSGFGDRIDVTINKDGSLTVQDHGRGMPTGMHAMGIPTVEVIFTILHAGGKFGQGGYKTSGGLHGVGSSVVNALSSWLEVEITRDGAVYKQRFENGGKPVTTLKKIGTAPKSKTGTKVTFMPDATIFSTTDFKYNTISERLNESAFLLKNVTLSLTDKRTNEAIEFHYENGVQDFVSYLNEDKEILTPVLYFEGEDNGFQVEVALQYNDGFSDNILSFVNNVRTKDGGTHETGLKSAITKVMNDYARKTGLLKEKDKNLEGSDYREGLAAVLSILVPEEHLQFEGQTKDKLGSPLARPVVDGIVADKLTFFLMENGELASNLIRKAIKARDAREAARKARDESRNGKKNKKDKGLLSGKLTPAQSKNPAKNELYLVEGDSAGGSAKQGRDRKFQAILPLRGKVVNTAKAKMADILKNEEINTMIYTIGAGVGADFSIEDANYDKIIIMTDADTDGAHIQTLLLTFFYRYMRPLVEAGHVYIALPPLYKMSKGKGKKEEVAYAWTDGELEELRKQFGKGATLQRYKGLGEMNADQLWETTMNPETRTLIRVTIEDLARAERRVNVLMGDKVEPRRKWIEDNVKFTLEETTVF
# experiment-description: S. pneumoniae Topoisomerase IV ATPase inhibition
# Format: biochemical
# experimental-conditions: values marked * are an average of two or more data points, read-out: % Inh (13 μM) of S. pneumoniae Topoisomerase IV ATPase

| molecule | inhibition at 13 µM [%] |
| --- | --- |
| CONC(=O)c1cncc(-c2cnc(Nc3ccc(F)c(Cl)c3)nc2NCCc2c[nH]cn2)c1 [Example 475] | 93 |
| COc1ccc(CNc2nc(Nc3ccc(F)c(Cl)c3)ncc2-c2cnc(OC)nc2)cn1 [Example 465] | 59 |
| O=C(O)c1cccc(-c2cnc(Nc3cc(F)cc(Cl)c3)nc2N2CCOCC2)n1 [Example 393] | 82 |
| COCCCNc1nc(Nc2ccc(F)c(Cl)c2)ncc1-c1nnn[nH]1 [Example 937] | 17 |
| O=C(O)c1cncc(-c2cnc(Nc3ccc(F)c(Cl)c3)nc2NCCc2cccnc2)c1 [Example 229] | 85 |
| COCCCNc1nc(Nc2ccc(F)c(Cl)c2)ncc1-c1nc(C)c(C(=O)OC)s1 [Example 505] | 19 |
| CCOC(=O)c1cncc(-c2cnc(Nc3ccc(F)c(Cl)c3)nc2NCCN(C)C)c1 [Example 93] | 79.6 |
| CNC(=O)c1cc(-c2cnc(Nc3cc(OC)cc(OC)c3)nc2-n2nc(C(F)(F)F)cc2C)cnc1OC [Example 808] | 100 |
